Below are IC50 values measured for Cholinesterase (Homo sapiens).

In the examples that follow, each entry is paired with its recorded IC50.
Write down the reported IC50 (system: Cholinesterase (Homo sapiens)) of Cc1cccc2c1OP(=O)(OC[C@H]1O[C@@H](N3C=NC4C(=O)N=C(N)N=C43)C[C@@H]1O)OC2 (stereo not given in full)
Sequence (P06276 whole entry): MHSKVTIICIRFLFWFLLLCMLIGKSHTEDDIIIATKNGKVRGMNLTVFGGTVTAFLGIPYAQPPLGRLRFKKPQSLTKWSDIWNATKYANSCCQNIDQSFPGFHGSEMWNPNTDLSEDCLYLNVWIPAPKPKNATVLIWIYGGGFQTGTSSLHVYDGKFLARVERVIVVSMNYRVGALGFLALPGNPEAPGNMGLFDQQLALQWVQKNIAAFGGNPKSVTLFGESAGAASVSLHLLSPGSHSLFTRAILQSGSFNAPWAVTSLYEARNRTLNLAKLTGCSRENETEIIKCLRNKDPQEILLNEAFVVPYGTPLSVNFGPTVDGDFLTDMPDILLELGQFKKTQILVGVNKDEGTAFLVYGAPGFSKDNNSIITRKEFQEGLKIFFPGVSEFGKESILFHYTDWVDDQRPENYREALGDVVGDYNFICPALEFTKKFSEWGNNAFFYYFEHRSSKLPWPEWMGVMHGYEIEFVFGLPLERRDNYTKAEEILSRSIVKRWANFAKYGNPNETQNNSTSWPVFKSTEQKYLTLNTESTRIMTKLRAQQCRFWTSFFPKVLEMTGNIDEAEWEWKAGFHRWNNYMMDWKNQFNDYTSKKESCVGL
> 50 µM

Output reported IC50 of the molecule CCC(C)c1cccc2c1OP(=O)(OCC1C=CC(n3cc(C)c(=O)[nH]c3=O)O1)OC2 (stereo not given) on Cholinesterase (Homo sapiens).
2 µM

Provide IC50, system Cholinesterase (Homo sapiens), entry Cc1cccc2c1OP(=O)(OCC1C=CC(n3cnc4c(O)nc(N)nc43)C1)OC2 (stereo not given)
2.5 µM

GET IC50 where system = Cholinesterase (Homo sapiens) and item = Cc1cn(C2C=CC(COP3(=O)OCc4cc(CCC(=O)O)ccc4O3)O2)c(=O)[nH]c1=O (stereo not given)
> 50 µM

Shift focus to the following entry.
Return reported IC50 for target or system Cholinesterase (Homo sapiens), item CCCCC1OP(=O)(OCC2C=CC(n3cc(C)c(=O)[nH]c3=O)O2)Oc2cccc(Cl)c21 (stereo not given) .
13 µM
